Reference source: patent US20070027145A1

- Tgt: EGFR (Homo sapiens, UniProt P00533)
- Construct: made in house; host or cells: insect cells (e.g. Spodoptera frugiperda Sf21), recombinant baculovirus
- Sequence (P00533 669-1210 limits assumed): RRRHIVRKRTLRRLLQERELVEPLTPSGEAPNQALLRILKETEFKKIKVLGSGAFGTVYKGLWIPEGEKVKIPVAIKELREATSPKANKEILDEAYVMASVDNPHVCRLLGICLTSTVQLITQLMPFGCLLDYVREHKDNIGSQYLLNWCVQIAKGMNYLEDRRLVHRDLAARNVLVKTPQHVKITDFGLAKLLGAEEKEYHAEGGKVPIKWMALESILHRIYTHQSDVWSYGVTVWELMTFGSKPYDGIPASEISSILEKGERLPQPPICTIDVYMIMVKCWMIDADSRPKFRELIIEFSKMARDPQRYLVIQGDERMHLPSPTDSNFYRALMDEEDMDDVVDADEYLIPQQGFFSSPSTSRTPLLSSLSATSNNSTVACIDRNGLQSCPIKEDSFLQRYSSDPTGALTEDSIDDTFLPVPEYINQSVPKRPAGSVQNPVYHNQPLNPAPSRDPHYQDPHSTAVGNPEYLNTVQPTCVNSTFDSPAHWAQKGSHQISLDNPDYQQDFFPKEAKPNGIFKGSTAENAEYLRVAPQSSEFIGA
- Assay info: In vitro receptor tyrosine kinase inhibition test (a), EGFR
- Type: biochemical
- Measurement conditions: read-out: IC50 in the enzyme assay (a) against EGFR
Experimental endpoint: pIC50
In simple prose, pIC50 is minus the logarithm base ten of a concentration in moles per litre.

State the recorded pIC50 for this entry: COc1cc2c(Nc3ccc(Br)cc3F)ncnc2cc1OCC1CCN(C(=O)CN(C)C)CC1
7.14

---

- Tgt: Flt-1 (Homo sapiens)
- Construct: encoding most of the cytoplasmic domain, commencing with methionine 783 and including the termination codon
- Sequence (P17948 781-1338 limits assumed): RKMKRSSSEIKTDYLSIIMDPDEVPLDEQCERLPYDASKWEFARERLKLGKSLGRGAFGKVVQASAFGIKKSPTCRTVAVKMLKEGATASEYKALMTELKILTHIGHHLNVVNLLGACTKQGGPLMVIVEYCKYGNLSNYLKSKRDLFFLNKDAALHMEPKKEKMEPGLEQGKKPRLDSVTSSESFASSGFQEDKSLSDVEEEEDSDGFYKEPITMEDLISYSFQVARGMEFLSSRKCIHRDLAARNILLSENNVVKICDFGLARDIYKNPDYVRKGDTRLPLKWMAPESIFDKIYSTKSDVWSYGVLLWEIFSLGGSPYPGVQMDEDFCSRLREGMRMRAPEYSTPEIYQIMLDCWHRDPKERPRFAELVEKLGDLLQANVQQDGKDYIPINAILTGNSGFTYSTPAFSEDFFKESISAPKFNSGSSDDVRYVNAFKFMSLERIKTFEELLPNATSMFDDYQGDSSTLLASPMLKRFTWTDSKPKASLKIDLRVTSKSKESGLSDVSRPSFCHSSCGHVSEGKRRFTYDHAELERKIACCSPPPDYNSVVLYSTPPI
- Assay info: In vitro receptor tyrosine kinase inhibition test (a), Flt-1
- Measurement conditions: read-out: IC50 in the enzyme assay (a) against Flt-1
Experimental endpoint: IC50
The reply should consist of the numeric value with the unit placed after it.

Looking for the measured IC50 of COc1cc2c(Nc3ccc(Br)cc3F)ncnc2cc1OCC1CCN(C(=O)CN(C)C)CC1 , can you help?
490 nM
